Cited source for all entries: paper PMC12864922

Target: TDP-43 (Homo sapiens, UniProt Q13148 1-414)
Sequence (Q13148 whole entry): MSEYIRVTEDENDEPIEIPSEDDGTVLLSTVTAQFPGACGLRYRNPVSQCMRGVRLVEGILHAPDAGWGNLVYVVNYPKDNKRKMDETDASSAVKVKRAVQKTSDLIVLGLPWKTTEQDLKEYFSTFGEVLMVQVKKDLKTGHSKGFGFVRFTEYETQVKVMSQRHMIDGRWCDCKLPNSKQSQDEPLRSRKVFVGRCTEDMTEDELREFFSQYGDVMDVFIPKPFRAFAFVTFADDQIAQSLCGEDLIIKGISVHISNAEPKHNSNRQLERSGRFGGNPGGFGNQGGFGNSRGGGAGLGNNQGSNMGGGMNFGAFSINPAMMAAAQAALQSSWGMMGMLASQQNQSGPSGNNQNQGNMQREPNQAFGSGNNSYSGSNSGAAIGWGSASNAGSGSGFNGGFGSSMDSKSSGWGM
Assay: RNA Bind-n-Seq with designed 260-mer pool; 25 mM Tris-HCl, 150 mM KCl, 3 mM MgCl2, BSA (printed 500 mg/mL), 20 units/mL SUPERase IN; pH not stated; 500 nM RNA pool, 1 h, 4 C; TDP-43 5, 50, 500 nM; high values mean tight binding
Details: protein: recombinant; tags: SBP (GST cleaved off with PreScission; pGEX-GST-SBP)
The full ranking holds about 9,900 sequences; the median of “r (bound/input frequency ratio)” is about 0.7, and the highest 2% start at about 6.5. Only a selection was taken, and the highest values are over-represented in it overall.
Each entry below lists one item and its recorded binding signal value.

[
  {
    "BINDER": "ENSMUSG00000043670.203|Diras1 (ssRNA) RNA: GGGAGUUCUACAGUCCGACGAUCGCUUCGAUAUCCGCAUGCUAGGGCCUGUGUCCCACCCAGAUGAGGGUGACUUAGAAUUCUGUGUUUAUGUGCCUGUGUGUGUGGAUGGGUGUGUGUCUGUCUUGGGAUGGGGUGUUCUUGCACCACUUUGUGUUCUUAGUGAGACCACAGUGUAAGUGGCCGUGUGUGUGUGUGGGGGGGGGCACCUAGACAUUGUGGUGUGUCUGUAUGGCUCUGUGUUUUCAGGGGUGGGUGACACAGGCCUGUCUGAUGAGCACCAGGUCUGUUCCAGGCUGUGGCACUCUUGCGGUCGCACUAGUGUGGAAUUCUCGGGUGUCAAGG",
    "MEASURED RESULT": "7.32 R (bound/input frequency ratio)"
  }
]

Here is the next item to consider.
Determine its reported binding signal: ENSMUSG00000043670.207|Diras1 (ssRNA) RNA: GGGAGUUCUACAGUCCGACGAUCGCUUCGAUAUCCGCAUGCUAGGUGACUUAGAAUUCUGUGUUUAUGUGCCUGUGUGUGUGGAUGGGUGUGUGUCUGUCUUGGGAUGGGGUGUUCUUGCACCACUUUGUGUUCUUAGUGAGACCACAGUGUAAGUGGCCGUGUGUGUGUGUGGGGGGGGGCACCUAGACAUUGUGGUGUGUCUGUAUGGCUCUGUGUUUUCAGGGGUGGGUGACACAGGCCUGUCUGAUGAGCACCAGGUCUGUUCCAGGCUGUGGCAAGCUGGCUCCUGGCUCAGAAGUGACUCUUGCGGUCGCACUAGUGUGGAAUUCUCGGGUGUCAAGG
8.86 R (bound/input frequency ratio)
